System: rat bladder strips
RUN_DESCRIPTION: K+-induced contractions of rat bladder strips
Assay type: cell-based
SETUP_CONDITIONS: 80 mM KCl, tonic contraction, drug added 30 minutes before, read-out: K+ Stimulation of Rat Bladder IC50 (μM) Contractions Tonic
Counter-ions that a name gives are not always drawn.
ASSAY_READOUT: IC50 (µM)
Give bare numbers, in µM.

Give IC50 for each of the items listed below.
1. COc1ccccc1N1CCN(CCCCNc2cccc3c(=O)c(C)c(-c4ccccc4)oc23)CC1 [Example 34, hydrochloride hemihydrate]
2. COc1ccccc1N1CCN(CCN(C)C(=O)c2cccc3c(=O)c(C)c(-c4ccccc4)oc23)CC1.Cl [Example 16, monohydrochloride]
3. COc1ccccc1N1CCN(CCCOc2cccc3c(=O)c(C)c(-c4ccccc4)oc23)CC1.Cl.Cl [Example 40, dihydrochloride]
4. COc1ccccc1N1CCN(CCOCc2cccc3c(=O)c(C)c(-c4ccccc4)oc23)CC1.Cl.Cl [Example 27, dihydrochloride]
5. COc1ccccc1N1CCN(CCSCc2cccc3c(=O)c(C)c(-c4ccccc4)oc23)CC1.Cl [Example 29, hydrochloride]

Result ::
3.6
2.2
0.9
0.8
10

Give IC50 for each of the items listed below.
1. COc1ccccc1N1CCN(CCCNc2cccc3c(=O)c(C)c(-c4ccccc4)oc23)CC1
2. COc1ccccc1N1CCN(CCCCCOc2cccc3c(=O)c(C)c(-c4ccccc4)oc23)CC1.Cl [Example 42, hydrochloride]

Result ::
1. 10
2. 10

----------
RUN_DESCRIPTION: Acute toxicity in mice after intraperitoneal and oral administration
SETUP_CONDITIONS: mouse, in vivo, ip; female albino Swiss mice, intraperitoneal, mortality recorded 7 days after administration; read-out: Acute Toxicity in Mice LD50 (mg/kg) i.p.
ASSAY_READOUT: LD50 at 168 h (mg/kg)
One number for each entry, in mg/kg.

Known LD50 at 168 h results, listed for orientation:
COMPOUND	VALUE
COc1ccccc1N1CCN(CCCOC(=O)c2cccc3c(=O)c(C)c(-c4ccccc4)oc23)CC1.Cl.Cl	621
CS(=O)(=O)O.Cc1c(-c2ccccc2)oc2c(C(=O)NCCCN3CCN(c4ncccn4)CC3)cccc2c1=O	258
CS(=O)(=O)O.Cc1c(-c2ccccc2)oc2c(C(=O)NCCCN3CCC(c4ccccc4)(c4ccccc4)CC3)cccc2c1=O	128
COc1ccccc1N1CCN(CCCC(=O)Nc2cccc3c(=O)c(C)c(-c4ccccc4)oc23)CC1 [Example 69, methanesulphonate hemihydrate]	344
COc1ccccc1N1CCN(CCCNS(=O)(=O)c2cccc3c(=O)c(C)c(-c4ccccc4)oc23)CC1.CS(=O)(=O)O	315

Give LD50 at 168 h for each of the items listed below.
1. COc1ccccc1N1CCN(CCC(=O)N(C)c2cccc3c(=O)c(C)c(-c4ccccc4)oc23)CC1.CS(=O)(=O)O
2. Cc1c(-c2ccccc2)oc2c(C(=O)NCCCN3CCC(n4c(=O)[nH]c5ccccc54)CC3)cccc2c1=O

Result ::
[309, 500]

Query :: Find the recorded LD50 at 168 h belonging to COc1ccccc1N1CCN(CCCCNC(=O)c2cccc3c(=O)c(C)c(-c4ccccc4)oc23)CC1.CS(=O)(=O)O and report it.
Result :: 203

----------
Hi there, I'd appreciate the recorded IC50 for every entry that follows.
TARGET_OR_TEST_SYSTEM: 5HT1A receptors (Rattus norvegicus, UniProt P19327)
Construct: Rat hippocampi were homogenized; from tissue; host or cells: rat hippocampus membranes
Sequence (P19327 whole entry): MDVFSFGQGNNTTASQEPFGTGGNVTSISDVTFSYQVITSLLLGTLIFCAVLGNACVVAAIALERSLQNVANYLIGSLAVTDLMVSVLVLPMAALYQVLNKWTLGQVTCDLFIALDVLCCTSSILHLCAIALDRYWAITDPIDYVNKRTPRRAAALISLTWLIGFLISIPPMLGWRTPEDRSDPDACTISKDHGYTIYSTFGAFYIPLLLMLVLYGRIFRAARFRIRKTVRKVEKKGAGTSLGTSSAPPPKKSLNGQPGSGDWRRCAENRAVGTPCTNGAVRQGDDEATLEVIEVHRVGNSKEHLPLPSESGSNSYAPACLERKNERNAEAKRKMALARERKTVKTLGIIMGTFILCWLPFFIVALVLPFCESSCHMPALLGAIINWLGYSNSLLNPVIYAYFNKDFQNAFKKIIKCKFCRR
RUN_DESCRIPTION: [3H]8-OH-DPAT binding (5HT1A receptors), rat hippocampus membranes
SETUP_CONDITIONS: rat hippocampus crude membranes, [3H]8-OH-DPAT 1.0 nM, 25°C 30 min; read-out: Receptor Binding IC50 (nM) 5-HT1a
Where a name gives a salt, the structure may show the parent alone.
One number for each entry, in nM.

COMPOUND	VALUE
COc1ccccc1N1CCN(CCCNC(=O)c2cccc3c(=O)c(CO)c(-c4ccccc4)oc23)CC1	14

Give IC50 for each of the items listed below.
1. COc1ccccc1N1CCN(CCCCOc2cccc3c(=O)c(C)c(-c4ccccc4)oc23)CC1.Cl.Cl [dihydrochloride]
2. Cc1c(-c2ccccc2)oc2c(C(=O)NCCCNCC3COc4ccccc4O3)cccc2c1=O (centres unmarked)
3. CSc1ccccc1OCCNCCCNC(=O)c1cccc2c(=O)c(C)c(-c3ccccc3)oc12 [Example 75, methanesulphonate]
4. COc1ccccc1N1CCN(CCCN(C(C)=O)C(=O)c2cccc3c(=O)c(C)c(-c4ccccc4)oc23)CC1
5. COc1ccccc1N1CCN(CCCN(C)c2cccc3c(=O)c(C)c(-c4ccccc4)oc23)CC1 [Example 35, hydrochloride hemihydrate]
6. COc1ccccc1N1CCN(CCOC(=O)c2cccc3c(=O)c(C)c(-c4ccccc4)oc23)CC1.Cl.Cl [Example 6, dihydrochloride]
7. COc1ccccc1N1CCN(CCCCCOc2cccc3c(=O)c(C)c(-c4ccccc4)oc23)CC1.Cl [Example 42, hydrochloride]
8. COc1ccccc1N1CCN(CCCOc2cccc3c(=O)c(C)c(-c4ccccc4)oc23)CC1.Cl.Cl [Example 40, dihydrochloride]

Result ::
1. 53
2. 2
3. 15
4. 81
5. 8
6. 1000
7. 39
8. 83
